Source: patent US9605283B2

assay: DHB dehydrogenase activity of cytosolic enzymes (DHB-dependent reduction of NAD+); format: biochemical; conditions: activity measured at 50 mM DHB; Table 4
measuredEndpoint: Max. specific activity, DHB (µmol/mg/min)
Entry rule: numbers only, all in µmol/mg/min.

[ask] Check the records and state Max. specific activity, DHB for Ec-MdhR81A D86S: E. coli malate dehydrogenase mutant R81A D86S, SEQ ID No. 170 (protein, listed as Escherichia coli) MKVAVLGAAGGIGQALALLLKTQLPSGSELSLYDIAPVTPGVAVDLSHIPTAVKIKGFSGEDATPALEGADVVLISAGVAAKPGMSRSDLFNVNAGIVKNLVQQVAKTCPKACIGIITNPVNTTVAIAAEVLKKAGVYDKNKLFGVTTLDIIRSNTFVAELKGKQPGEVEVPVIGGHSGVTILPLLSQVPGVSFTEQEVADLTKRIQNAGTEVVEAKAGGGSATLSMGQAAARFGLSLVRALQGEQGVVECAYVEGDGQYARFFSQPLLLGKNGVEERKSIGTLSAFEQNALEGMLDTLKKDIALGEEFVNK
[reply] 0.79

[ask] Supply Max. specific activity, DHB value. Item: Ec-MdhR81A I12V: E. coli malate dehydrogenase mutant R81A I12V, SEQ ID No. 162 (protein, listed as Escherichia coli) MKVAVLGAAGGVGQALALLLKTQLPSGSELSLYDIAPVTPGVAVDLSHIPTAVKIKGFSGEDATPALEGADVVLISAGVAAKPGMDRSDLFNVNAGIVKNLVQQVAKTCPKACIGIITNPVNTTVAIAAEVLKKAGVYDKNKLFGVTTLDIIRSNTFVAELKGKQPGEVEVPVIGGHSGVTILPLLSQVPGVSFTEQEVADLTKRIQNAGTEVVEAKAGGGSATLSMGQAAARFGLSLVRALQGEQGVVECAYVEGDGQYARFFSQPLLLGKNGVEERKSIGTLSAFEQNALEGMLDTLKKDIALGEEFVNK
[reply] 2.5
